Where do these numbers come from? They come from the Human Domainome abundance scans (Beltran et al. 2025).

B1: Histidine--tRNA ligase, cytoplasmic, residues 8 to 45; numbered along this chain, P12081 (parent)
chain: EELVKLQGERVRGLKQQKASAELIEEEVAKLLKLKAQL

- Variants of: B1
- protocol_summary: abundance fitness (aPCA) (normalised: wild type 0, dead -1); higher = more abundant; growth selection in yeast, the domain comes from the species named
- recorded_conditions: Homo sapiens
result_type: abundance fitness
Answers are plain numbers.

Some solved entries appear below for comparison.
L38K | 0.14
E1K | -0.165
V11R | -0.03
E25P | -0.208
A19I | -0.538

Please state, for each entry, its recorded abundance fitness.
1. L6I
2. K18I
3. K30G
4. I24D
5. K18M
6. R10D
7. Q7C

# output
-0.428
-0.375
-0.364
0.055
0.067
-0.084
-0.616

Please state, for each entry, its recorded abundance fitness.
1. Q7N
2. E25R
3. A19W
4. R12F
5. G13M
6. E22N
7. K5I
8. K18Q

# output
1: -0.485; 2: -0.064; 3: -0.424; 4: -0.172; 5: 0.324; 6: 0.055; 7: -0.436; 8: 0.066

Please state, for each entry, its recorded abundance fitness.
1. E27H
2. E9F
3. K5C
4. E26P
5. A21K
6. E22R
7. V11A
8. A19N

# output
1. -0.436
2. -0.684
3. -0.531
4. -0.024
5. 0.055
6. -0.023
7. -0.169
8. -0.406

Please state, for each entry, its recorded abundance fitness.
1. Q16T
2. V28G
3. E9C
4. Q7H
5. G8F

# output
1. -0.08
2. -0.195
3. -0.5
4. -0.507
5. -0.287
